Target: Dual specificity tyrosine-phosphorylation-regulated kinase 1A (Homo sapiens) (UniProt Q13627)
Conditions: at 0.1 µM
Description: GSK_PKIS: DYRK1A mean inhibition at 0.1 uM [Nanosyn]
quantity_name: inhibition (%)
# value in %; strip the unit string

Challenge: So what does the record say about inhibition for Nc1nccc(-c2c(-c3ccc(F)cc3)ncn2CCCN2CCOCC2)n1 ?
Response given: 2.64

Challenge: So what does the record say about inhibition for CC(C)c1ccc(Nc2nccc(-c3cnn4ncccc34)n2)cc1 ?
Response given: 40.6

---

Listed here are compounds together with their documented inhibition.
Target: SRSF protein kinase 1 (Homo sapiens) (UniProt Q96SB4);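 note: reported values are mean percent inhibition of SRPK1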
Sequence (Q96SB4 whole entry): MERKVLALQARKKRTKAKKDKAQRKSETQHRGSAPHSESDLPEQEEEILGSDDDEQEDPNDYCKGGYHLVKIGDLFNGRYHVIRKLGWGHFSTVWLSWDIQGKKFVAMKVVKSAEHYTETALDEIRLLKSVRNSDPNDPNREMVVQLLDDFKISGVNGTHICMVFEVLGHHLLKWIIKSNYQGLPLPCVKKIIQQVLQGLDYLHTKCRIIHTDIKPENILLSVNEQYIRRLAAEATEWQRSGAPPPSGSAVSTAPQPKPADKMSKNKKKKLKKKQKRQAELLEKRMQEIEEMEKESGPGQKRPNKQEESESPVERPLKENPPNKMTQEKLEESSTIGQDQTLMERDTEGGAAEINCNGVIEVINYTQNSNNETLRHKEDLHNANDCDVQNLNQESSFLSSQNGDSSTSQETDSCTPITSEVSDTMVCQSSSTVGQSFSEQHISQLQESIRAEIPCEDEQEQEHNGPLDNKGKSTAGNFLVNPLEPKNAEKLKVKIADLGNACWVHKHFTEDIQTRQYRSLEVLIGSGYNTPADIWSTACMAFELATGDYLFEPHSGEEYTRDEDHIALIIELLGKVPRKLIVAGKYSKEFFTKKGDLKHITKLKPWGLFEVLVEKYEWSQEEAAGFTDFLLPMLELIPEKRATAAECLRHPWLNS
Conditions: at 1 µM
Quick note: number first, unit second.

Example entries and their recorded answers appear below.
>  <compound>
COc1cc(/C=N/Nc2ncnc3c2cnn3C(C)C)ccc1O

>  <inhibition>
1.12%

$$$$
>  <compound>
CS(=O)(=O)CCNCc1nc(-c2ccc3ncnc(Nc4ccc(OCc5cccc(C(F)(F)F)c5)cc4)c3c2)cs1

>  <inhibition>
-3.03%

$$$$
>  <compound>
COc1ccc(-c2nn3ncccc3c2-c2ccnc(Nc3cccc(C(F)(F)F)c3)n2)cc1

>  <inhibition>
-1.48%

$$$$
>  <compound>
COC(=O)c1cncc(/C=C/c2c(C)cc(O)cc2C)c1

>  <inhibition>
2.47%

$$$$
>  <compound>
Nc1nccc(-c2c(-c3ccc(F)cc3)ncn2CCCN2CCOCC2)n1

>  <inhibition>
-2.36%

$$$$
>  <compound>
COc1cc2ncnc(Nc3ccc4c(cnn4Cc4ccccc4)c3)c2cc1OC

>  <inhibition>
-2.33%

$$$$
>  <compound>
Nc1ccc(C#Cc2cncnc2Nc2ccc(OCc3cccc(F)c3)c(Cl)c2)cc1

>  <inhibition>
-0.29%

$$$$
>  <compound>
COc1ccc2ncnc(Nc3ccc(OCc4ccccc4)cc3)c2c1

>  <inhibition>
-0.4%

$$$$
>  <compound>
O=S(=O)(CCOCc1ccc(-c2ccc3ncnc(Nc4ccc(OCc5cccc(F)c5)c(Cl)c4)c3c2)o1)c1ccccc1

>  <inhibition>
-1.54%

$$$$

Shift focus to the following entry.
Challenge: So what does the record say about inhibition for Cc1cc(Cl)cc2c1NC(=O)C2=NNc1ccc(S(N)(=O)=O)cc1 ?
Response given: 1.09%

Attribution: ChEMBL document CHEMBL1961873
